Molecular target: UniProt Q8NBP7
Test: PCSK9 ligand binding TR-FRET assay (interference with binding of human PCSK9 to human LDLR)
Conditions: PCSK9 FRET assay, efficacy (Amax); 100% = 1 uM unlabeled human PCSK9, 0% = DMSO
Consider the following compounds and their measured Max % inhibition readings.

| compound | Max % inhibition |
| --- | --- |
| COC[C@@H]1NC(=O)[C@@H](CCN(C)C)N(Cc2ccc(Cl)cc2Oc2ccc(-c3cnc(CN(C)C)n3C)cc2)C(=O)C[C@@H](Cc2ccccc2)C(=O)N(C)[C@H]2CCCC[C@@H]2NC(=O)C[C@H](Cc2ccc(Cl)cc2)N(C)C1=O | 87.05% |
| COC[C@@H]1NC(=O)[C@H](C)N(Cc2ccc(Cl)cc2Oc2ccc(-c3cncc(C4=CCNCC4)c3)cc2)C(=O)C[C@@H](Cc2ccccc2)C(=O)N(C)[C@@H](C)CNC(=O)C[C@H](Cc2ccc(Cl)cc2)N(C)C1=O | 96.16% |
| COC[C@@H]1NC(=O)[C@H](C)N(Cc2ccc(Cl)cc2Oc2ccc(-c3cnc(CN4CCCC4)n3C)cc2)C(=O)C[C@@H](Cc2ccccc2)C(=O)N(C)C2CCOCC2NC(=O)C[C@H](Cc2ccc(Cl)cc2)N(C)C1=O (single isomer, unassigned) | 93.20% |
| [2H]C([2H])([2H])N(Cc1ncc(-c2ccc(Oc3cc(Cl)ccc3CN3C(=O)C[C@@H](Cc4ccccc4)C(=O)N(C)[C@@H](C)CNC(=O)C[C@H](Cc4ccc(Cl)cc4)N(C)C(=O)[C@H](COC)NC(=O)[C@@H]3CC)cc2)n1C)C([2H])([2H])[2H] | 99.12% |

====

Biological target: human PCSK9 (Homo sapiens)
Sequence (Q8NBP7 153-692): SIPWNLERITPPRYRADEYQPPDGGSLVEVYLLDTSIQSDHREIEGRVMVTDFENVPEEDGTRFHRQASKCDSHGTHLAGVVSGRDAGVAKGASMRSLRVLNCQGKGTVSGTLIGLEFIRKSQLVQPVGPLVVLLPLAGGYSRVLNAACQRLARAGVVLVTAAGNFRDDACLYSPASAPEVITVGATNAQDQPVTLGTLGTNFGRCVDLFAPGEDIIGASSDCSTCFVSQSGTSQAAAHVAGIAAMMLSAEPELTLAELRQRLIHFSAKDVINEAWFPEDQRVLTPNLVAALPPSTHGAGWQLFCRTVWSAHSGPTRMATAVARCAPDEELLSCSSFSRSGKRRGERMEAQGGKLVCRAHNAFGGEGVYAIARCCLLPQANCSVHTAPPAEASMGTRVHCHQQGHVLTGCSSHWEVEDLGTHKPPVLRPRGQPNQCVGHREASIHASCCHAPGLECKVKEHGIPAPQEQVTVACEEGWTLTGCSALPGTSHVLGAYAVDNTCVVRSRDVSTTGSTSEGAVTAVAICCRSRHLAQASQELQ
Sequence (Q8NBP7 31-152 partner limits assumed): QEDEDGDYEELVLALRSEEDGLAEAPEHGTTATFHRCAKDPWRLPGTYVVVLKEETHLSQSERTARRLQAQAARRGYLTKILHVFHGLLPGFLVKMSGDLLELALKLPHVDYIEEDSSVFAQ
Test: PCSK9 ligand binding TR-FRET assay (interference with binding of human PCSK9 to human LDLR)
Settings: TR-FRET; human PCSK9 Alexa Fluor 647 / human LDLR extracellular domain-Europium Kryptate; read-out: PCSK9 FRET Assay IC50
pIC50: −log10 of the molar value.
Measured pIC50 values are reported for all entries that follow.
recorded endpoint: pIC50

| molecule | system name | numeric result |
| --- | --- | --- |
| COC[C@@H]1NC(=O)[C@H](C)N(Cc2ccc(C)cc2Oc2ccc(-c3cnc(CN(C)C)n3C)cc2)C(=O)C[C@@H](Cc2ccccc2)C(=O)N(C)[C@@H](C)CNC(=O)C[C@H](Cc2ccc(Cl)cc2)N(C)C1=O [Compound 240] | human PCSK9 (Homo sapiens) | 9.05 |
| COC[C@@H]1NC(=O)[C@H](CC(=O)N2CCOCC2)N(Cc2ccc(Cl)cc2Oc2ccc(-c3cnc(CN(C)C)n3C)cc2)C(=O)C[C@@H](Cc2ccccc2)C(=O)N(C)[C@@H](C)CNC(=O)C[C@H](Cc2ccc(Cl)cc2)N(C)C1=O [Compound 38] | human PCSK9 (Homo sapiens) | 8.68 |
| COC[C@@H]1NC(=O)[C@H](C)N(Cc2ccc(Cl)cc2Oc2ccc(-c3cnc([C@@H](C)N(C)C)n3C)cc2)C(=O)C[C@@H](Cc2ccccc2)C(=O)N(C)[C@@H](C)[C@H](C)NC(=O)C[C@H](Cc2ccc(Cl)cc2)N(C)C1=O [Compound 261] | human PCSK9 (Homo sapiens) | 8.70 |
| CCOC(=O)CCCN(CCCC(=O)OCC)CCC[C@H]1C(=O)N[C@@H](COC)C(=O)N(C)[C@@H](Cc2ccc(Cl)cc2)CC(=O)N[C@H]2CCCC[C@@H]2N(C)C(=O)[C@H](Cc2ccccc2)CC(=O)N1Cc1ccc(Cl)cc1Oc1ccc(-c2cnc(CN(C)C)n2C)cc1 [Compound 267] | human PCSK9 (Homo sapiens) | 8.15 |
| C[C@H]1CNC(=O)C[C@H](Cc2ccc(Cl)cc2)N(C)C(=O)[C@H](CO)NC(=O)[C@H](C)N(Cc2ccccc2OCC(=O)N2Cc3cccnc3C2)C(=O)C[C@@H](Cc2ccccc2)C(=O)N1C (stereo in doubt) [Compound 143] | human PCSK9 (Homo sapiens) | 6.11 |
| COC[C@@H]1NC(=O)[C@H](C)N(Cc2ccc(Cl)cc2Oc2ccc(-c3cnc(CN4CCCC4)n3C)cc2)C(=O)C[C@@H](Cc2ccccc2)C(=O)N(C)[C@@H](CCCCNC(C)=O)CNC(=O)C[C@H](Cc2ccc(Cl)cc2)N(C)C1=O.O=C(O)C(F)(F)F [Compound 217, trifluoroacetate] | human PCSK9 (Homo sapiens) | 9.15 |
| COC[C@@H]1NC(=O)[C@H](C)N(Cc2ccc(Cl)cc2Oc2ccc(-c3cnc(CN(C)C)n3C)cc2)C(=O)C[C@@H](Cc2ccccc2)C(=O)N(C)C2(CC2)CNC(=O)C[C@H](Cc2ccc(Cl)cc2)N(C)C1=O [Compound 144] | human PCSK9 (Homo sapiens) | 8.15 |
| C[C@H]1CNC(=O)C[C@H](Cc2ccc(Cl)cc2)N(C)C(=O)[C@H](CO)NC(=O)[C@H](C)N(Cc2ccc(Cl)cc2Oc2ccc(-c3cnc(CN(C)C)n3C)cc2)C(=O)C[C@@H](Cc2ccccc2)C(=O)N1C [Compound 142] | human PCSK9 (Homo sapiens) | 8.92 |
